# system_under_test: human glucagon receptor (human, UniProt P47871 26-477)
# experimental_details: cell-based or functional assay
Non-standard residues stand in square brackets, D forms with d. No end group written: not given here. Bip(2'-Et-4'-OMe) = CCc1cc(OC)ccc1-c1ccc(C[C@H](N)C(=O)O)cc1; Leu(5,5,5,5',5',5'-F6) = N[C@@H](CC(C(F)(F)F)C(F)(F)F)C(=O)O; 2F‑APPA = 2-amino-5-(2-fluorophenyl)pentanoic acid; αMePhe(2-F) = C[C@](N)(Cc1ccccc1F)C(=O)O; NMeBip(OMe) = N-methylated Bip(OMe); hhPhe = N[C@@H](CCCc1ccccc1)C(=O)O; NMeD = CN[C@@H](CC(=O)O)C(=O)O; aThr = C[C@H](O)[C@H](N)C(=O)O; NMeAPPA = not defined here; CNB = not defined here; Aib = CC(C)(N)C(=O)O
quantity_name: inhibition of cAMP production, 1 µM (pmol/ml/µg prt)

Example binders with recorded inhibition of cAMP production, 1 µM:
HSQGTFTSD[Bip(2'-Et-4'-OMe)][2F‑APPA] [Seq. ID. No. 45: HSQGTFTSD-Bip(OMe)-(2F-APPA)] ... 4
H[Aib][CNB]G[aThr][αMePhe(2-F)][aThr]S[NMeD][NMeBip(OMe)][NMeAPPA] (reading uncertain) [Seq. ID. No. 154: H-Aib-(CNB)-G-T(allo)-(α-Me-2F-Phe)-T(allo)-S-(NMe)D-((NMe)Bip(OMe))-((NMe)(APPA))] ... 3

I = H[Aib][CNB]G[aThr][αMePhe(2-F)][aThr]SD[Bip(2'-Et-4'-OMe)][NMeAPPA] (reading uncertain) [Seq. ID. No. 130: H-Aib-(CNB)-G-T(allo)-(α-Me-2F-Phe)-T(allo)-SD-Bip(OMe)-((NMe)(APPA))]
II = Ac-H[Aib][Leu(5,5,5,5',5',5'-F6)]GT[αMePhe(2-F)]TSD[Bip(2'-Et-4'-OMe)][2F‑APPA] [Seq. ID. No. 212: CH3CO-H-Aib-(Hfl)-GT-(α-Me-2F-Phe)-TSD-Bip(OMe)-(2F-APPA)]
III = H[Aib][Leu(5,5,5,5',5',5'-F6)]G[aThr][αMePhe(2-F)][aThr]SD[Bip(2'-Et-4'-OMe)][hhPhe] [Seq. ID. No. 228: H-Aib-(Hfl)-G-T(allo)-(α-Me-2F-Phe)-T(allo)-SD-Bip(OMe)-(APPA)]
In this exercise, place the 3 binders in ascending sequence of their recorded inhibition of cAMP production, 1 µM. Rank them, then answer with their labels in that order.
I, II, III
